- tested-system: recombinant human 5-HT5A receptor (Homo sapiens)
- test-summary: [3H]LSD radioligand binding assay
- experimental-setup: [3H]LSD (approximately 1 nM); membranes from HEK-EBNA cells transiently expressing 5-HT5A; Ki by Cheng-Prussoff equation; read-out: Ki
observed-property: Ki (nM)

Solved cases (5 shown):
CC(C)NC(=O)Nc1ccc2c(c1)COC(NC1CCCCCC1)=N2	1.86
Nc1ccc2c(c1)COC(NCCOc1ccccc1)=N2	3.6
c1ccc(CNc2ccc3c(c2)COC(Nc2cccc(C4CC4)c2)=N3)cc1	61.3
CN1CCN(CC(=O)Nc2ccc3c(c2)COC(NCCOc2ccccc2)=N3)CC1	5.11
Fc1ccc2c(c1)CCC2NC1=Nc2ccc(Nc3nccc(C(F)(F)F)n3)cc2CO1 (racemic)	6.8

P: CN1CCN(CC(=O)Nc2ccc3c(c2)COC(Nc2cccc(C4CC4)c2)=N3)CC1
Q: COc1ccccc1CNC1=Nc2ccc(NC(=O)C3CC3)cc2CO1
Q. When the recorded Ki values are compared, which is smaller: that of P or that of Q ? Reply with the label of the item you choose.
A. Q

1: O=S(=O)(Nc1ccc2c(c1)COC(NC1CCCCCC1)=N2)c1ccccc1
2: Cc1ccc(CNC2=Nc3ccc(N)cc3CO2)o1
3: COc1cccc2c1C(NC1=Nc3ccc(NS(=O)(=O)N4CCOCC4)cc3CO1)CC2 (racemic)
4: CN(C)S(=O)(=O)Nc1ccc2c(c1)COC(NCCOc1ccccc1)=N2
Q. Arrange these compounds by their Ki, starting with the largest number. Response format: the labels, sorted as the prompt asks.
A. 1, 4, 2, 3
(1: 74.7 nM, 4: 24.1 nM, 2: 13.5 nM, 3: 3.32 nM)

---

observed-property: melting point (°C)

COc1cccc2c1C(NC1=Nc3ccc(Br)cc3CO1)CO2 (racemic)	132.5
C(=C\c1ccc2c(c1)COC(N[C@@H]1CCc3ccccc31)=N2)/c1cccnc1	132
COc1cccc2c1C(NC1=Nc3ccc(Nc4nnc(C(F)(F)F)o4)cc3CO1)CC2 (racemic)	173
Cc1nc(-c2ccc3c(c2)COC(N[C@@H]2CCc4ccccc42)=N3)no1	138

---

- tested-system: recombinant human 5-HT5A receptor (Homo sapiens)
- test-summary: [3H]LSD radioligand binding assay
- experimental-setup: [3H]LSD (approximately 1 nM); membranes from HEK-EBNA cells transiently expressing 5-HT5A; Ki by Cheng-Prussoff equation; read-out: Ki
pKi: −log10 of the molar value.
observed-property: pKi

I: Cc1nnc(Nc2ccc3c(c2)COC(NC2CCc4cc(F)ccc42)=N3)o1 (racemic)
II: COc1cccc2c1C(NC1=Nc3ccc(N)cc3CO1)CCC2 (racemic)
III: Fc1ccc2c(c1)CCC2NC1=Nc2ccc(Br)cc2CO1 (racemic)
IV: O=C(Nc1ccc2c(c1)COC(N[C@@H]1CCc3ccccc31)=N2)C1CC1
Q. Sort (4 compounds) by pKi: min first. Response format: the labels, sorted as the prompt asks.
A. III, II, I, IV

A: O=S(=O)(Nc1ccc2c(c1)COC(NC1CCCCCC1)=N2)C1CC1
B: COc1cccc2c1C(NC1=Nc3ccc(NS(=O)(=O)c4ccccc4)cc3CO1)CC2 (racemic)
C: COCC(=O)Nc1ccc2c(c1)COC(N[C@@H]1CCc3ccccc31)=N2
Q. Hi! Can you put these in order of pKi, lowest number first? Response format: the labels, sorted as the prompt asks.
A. A, B, C

---

- tested-system: recombinant human 5-HT5A receptor (Homo sapiens)
- test-summary: [3H]LSD radioligand binding assay
- experimental-setup: [3H]LSD (approximately 1 nM); membranes from HEK-EBNA cells transiently expressing 5-HT5A; Ki by Cheng-Prussoff equation; read-out: Ki
pKi: −log10 of the molar value.
observed-property: pKi

Solved cases (5 shown):
Fc1ccc2c(c1)CCC2NC1=Nc2ccc(Nc3nnc(C(F)(F)F)o3)cc2CO1 (racemic) [Example 148]	7.85
O=S(=O)(Nc1ccc2c(c1)COC(NCCOc1ccccc1)=N2)C1CC1 [Example 108]	7.54
COc1cccc2c1C(NC1=Nc3ccc(C#N)cc3CO1)CO2 (racemic) [Example 141]	6.80
O=C(Nc1ccc2c(c1)COC(Nc1cccc(C3CC3)c1)=N2)C1CC1 [Example 128]	7.63
O=S(=O)(Nc1ccc2c(c1)COC(Nc1cccc(C3CC3)c1)=N2)C1CC1 [Example 149]	6.86

A: CN(C)S(=O)(=O)Nc1ccc2c(c1)COC(Nc1cccc(C3CC3)c1)=N2 [Example 135]
B: O=C(CN1CCOCC1)Nc1ccc2c(c1)COC(NC1CCc3cc(F)ccc31)=N2 (racemic) [Example 56]
Q. When the recorded pKi values are compared, which is smaller: that of A or that of B ? Reply with the label of the item you choose.
A. A
(A: 7.14, B: 7.89)

P: COc1cccc2c1C(NC1=Nc3ccc(Nc4cccc(C(F)(F)F)n4)cc3CO1)CC2 (racemic) [Example 80]
Q: CN1CCN(CC(=O)Nc2ccc3c(c2)COC(NC2CCCCCC2)=N3)CC1 [Example 93]
R: CC(C)NC(=O)Nc1ccc2c(c1)COC(Nc1cccc(C3CC3)c1)=N2 [Example 151]
S: CN1CCN(CC(=O)Nc2ccc3c(c2)COC(NC2CCCCCCC2)=N3)CC1 [Example 156]
Q. Arrange these compounds by their pKi, starting with the largest number. Response format: the labels, sorted as the prompt asks.
A. S, P, Q, R

I: COc1cccc2c1C(NC1=Nc3ccc(NC(C)=O)cc3CO1)CC2 (racemic) [Example 52]
II: COc1cccc2c1C(NC1=Nc3ccc(NC(=O)CN4CCOCC4)cc3CO1)CC2 (racemic) [Example 55]
Q. Rank I against II by their pKi values and give the higher one. Reply with the label of the item you choose.
A. I

a: O=S(=O)(Nc1ccc2c(c1)COC(N[C@@H]1CCc3ccccc31)=N2)c1ccccc1 [Example 83]
b: CN(C)S(=O)(=O)Nc1ccc2c(c1)COC(N[C@@H]1CCc3ccccc31)=N2 [Example 27]
c: COc1cccc2c1C(NC1=Nc3ccc(NC(=O)CCl)cc3CO1)CO2 (racemic) [Example 8]
d: C(=C\c1ccc2c(c1)COC(N[C@@H]1CCc3ccccc31)=N2)/c1cccnc1 [Example 143]
Q. Hi! Can you put these in order of pKi, lowest number first? Response format: the labels, sorted as the prompt asks.
A. c, d, a, b

---

- tested-system: recombinant human 5-HT5A receptor (Homo sapiens, UniProt P47898)
- Sequence (P47898 whole entry): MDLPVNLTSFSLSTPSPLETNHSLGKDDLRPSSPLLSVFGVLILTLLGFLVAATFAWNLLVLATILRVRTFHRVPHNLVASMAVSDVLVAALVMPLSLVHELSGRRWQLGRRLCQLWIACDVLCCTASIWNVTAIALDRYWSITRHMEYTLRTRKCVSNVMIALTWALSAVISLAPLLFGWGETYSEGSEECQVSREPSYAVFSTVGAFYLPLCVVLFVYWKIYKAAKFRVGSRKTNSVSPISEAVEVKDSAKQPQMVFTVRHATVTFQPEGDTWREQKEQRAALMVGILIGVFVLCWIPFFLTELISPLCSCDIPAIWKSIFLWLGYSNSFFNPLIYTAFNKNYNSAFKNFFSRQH
- test-summary: [3H]LSD radioligand binding assay
- experimental-setup: [3H]LSD (approximately 1 nM); membranes from HEK-EBNA cells transiently expressing 5-HT5A; Ki by Cheng-Prussoff equation; read-out: Ki
observed-property: Ki (nM)

Solved cases (5 shown):
O=S(=O)(Nc1ccc2c(c1)COC(NCCOc1ccccc1)=N2)c1ccccc1	32.3
COCC(=O)Nc1ccc2c(c1)COC(NC1CCc3cccc(OC)c31)=N2 (racemic)	4.83
CC(C)N1CCC(NC(=O)Nc2ccc3c(c2)COC(Nc2cccc(C4CC4)c2)=N3)CC1	5.32
O=C(Nc1ccc2c(c1)COC(NC1CCc3cc(F)ccc31)=N2)C1CC1 (racemic)	1.36
O=C(CN1CCOCC1)Nc1ccc2c(c1)COC(NCCOc1ccccc1)=N2	41.4

P: Cc1nc(-c2ccc3c(c2)COC(N[C@@H]2CCc4ccccc42)=N3)no1
Q: COc1cccc2c1C(NC1=Nc3ccc(Nc4nccc(C(F)(F)F)n4)cc3CO1)CO2 (racemic)
Q. Rank P against Q by their Ki values and give the higher one. Reply with the label of the item you choose.
A. P
(P: 75.7 nM, Q: 12.5 nM)

a: c1csc(CNc2ccc3c(c2)COC(NC2CCCCCC2)=N3)n1
b: CC(C)(O)CNCC(=O)Nc1ccc2c(c1)COC(N[C@@H]1CCCc3ccccc31)=N2
c: COc1cccc2c1C(NC1=Nc3ccc(Br)cc3CO1)CO2 (racemic)
Q. Hi! Can you put these in order of Ki, lowest number first? Response format: the labels, sorted as the prompt asks.
A. a, b, c
(a: 19.3 nM, b: 33 nM, c: 125 nM)

---

- tested-system: recombinant human 5-HT5A receptor (Homo sapiens, UniProt P47898)
- test-summary: [3H]LSD radioligand binding assay
- experimental-setup: [3H]LSD (approximately 1 nM); membranes from HEK-EBNA cells transiently expressing 5-HT5A; Ki by Cheng-Prussoff equation; read-out: Ki
- Experimental: A [^3H]LSD radioligand binding assay was used to determine the affinity of the compounds for the recombinant human 5-HT5A receptor, in membranes from transiently (cDNA) expressed 5-HT5A receptors in Human Embryonic Kidney-EBNA (HEK-EBNA) cells. […] Bound ligand was determined using a Packard Topcount scintillation counter. IC50 values were calculated using a non-linear curve fitting program and Ki values calculated using the Cheng-Prussoff equation.
observed-property: Ki (nM)

CC(C)NC(=O)Nc1ccc2c(c1)COC(Nc1cccc3c1OC(C)(C)C3)=N2	241
Cc1ccc(CNC2=Nc3ccc(NC(=O)CN4CCOCC4)cc3CO2)o1	251
CN(C)S(=O)(=O)Nc1ccc2c(c1)COC(NC1CCc3cc(F)ccc31)=N2 (racemic)	4.08
COc1cccc2c1C(NC1=Nc3ccc(NS(=O)(=O)c4ccccc4)cc3CO1)CO2 (racemic)	20.9
Nc1ccc2c(c1)COC(NC1COc3cc(F)ccc31)=N2 (racemic)	4.26

1: CN1CCN(CC(=O)Nc2ccc3c(c2)COC(NC2COc4cc(F)ccc42)=N3)CC1 (racemic)
2: CC(=O)Nc1ccc2c(c1)COC(N[C@@H]1CCc3ccccc31)=N2
Q. Rank 1 against 2 by their Ki values and give the higher one. Reply with the label of the item you choose.
A. 1
(1: 6.5 nM, 2: 3.63 nM)

I: Cc1nnc(Nc2ccc3c(c2)COC(N[C@@H]2CCc4ccccc42)=N3)o1
II: COCC(=O)Nc1ccc2c(c1)COC(NC1COc3cccc(OC)c31)=N2 (racemic)
III: CC(C)(O)CNCC(=O)Nc1ccc2c(c1)COC(NC1COc3cc(F)ccc31)=N2 (racemic)
IV: Cc1ccc(CNC2=Nc3ccc(NC(=O)C4CC4)cc3CO2)o1
Q. Hi! Can you put these in order of Ki, lowest number first? Response format: the labels, sorted as the prompt asks.
A. I, IV, II, III
(I: 1.4 nM, IV: 11.7 nM, II: 26.1 nM, III: 50.3 nM)

I: COc1cccc2c1C(NC1=Nc3ccc(C#N)cc3CO1)CC2 (racemic)
II: COC[C@@H]1CN(CC(=O)Nc2ccc3c(c2)COC(N[C@@H]2CCc4ccccc42)=N3)C[C@@H](COC)N1C (mixture of isomers)
Q. When the recorded Ki values are compared, which is smaller: that of I or that of II ? Reply with the label of the item you choose.
A. II

1: O=C(CN1CCOCC1)Nc1ccc2c(c1)COC(N[C@@H]1CCCc3ccccc31)=N2
2: CN1CCN(CC(=O)Nc2ccc3c(c2)COC(NC2CCOc4ccccc42)=N3)CC1 (racemic)
Q. When the recorded Ki values are compared, which is smaller: that of 1 or that of 2 ? Reply with the label of the item you choose.
A. 2
(2: 14.3 nM, 1: 22.8 nM)

I: COc1cccc2c1C(NC1=Nc3ccc(NS(C)(=O)=O)cc3CO1)CO2 (racemic)
II: COc1cccc2c1C(NC1=Nc3ccc(NC(=O)N(C)C4CCN(C(C)C)CC4)cc3CO1)CO2 (racemic)
Q. Rank I against II by their Ki values and give the higher one. Reply with the label of the item you choose.
A. I
(I: 30.4 nM, II: 6.08 nM)

P: Cc1ccc(CNC2=Nc3ccc(NC(=O)CN4CCN(C)CC4)cc3CO2)o1
Q: N#Cc1ccc2c(c1)COC(N[C@@H]1CCc3ccccc31)=N2
Q. Rank P against Q by their Ki values and give the higher one. Reply with the label of the item you choose.
A. P

1: COc1cccc2c1C(NC1=Nc3ccc(NS(C)(=O)=O)cc3CO1)CC2 (racemic)
2: O=S(=O)(Nc1ccc2c(c1)COC(N[C@@H]1CCc3ccccc31)=N2)N1CCCCC1
Q. When the recorded Ki values are compared, which is smaller: that of 1 or that of 2 ? Reply with the label of the item you choose.
A. 2
(2: 4.2 nM, 1: 8.36 nM)

a: COc1cccc2c1C(NC1=Nc3ccc(NS(=O)(=O)N(C)C)cc3CO1)CC2 (racemic)
b: O=C(CN1CCOCC1)Nc1ccc2c(c1)COC(NC1CCOc3ccccc31)=N2 (racemic)
Q. When the recorded Ki values are compared, which is smaller: that of a or that of b ? Reply with the label of the item you choose.
A. a
